# assayed system: recombinant human 5-HT5A receptor (Homo sapiens, UniProt P47898)
# Construct: membranes
# Sequence (P47898 whole entry): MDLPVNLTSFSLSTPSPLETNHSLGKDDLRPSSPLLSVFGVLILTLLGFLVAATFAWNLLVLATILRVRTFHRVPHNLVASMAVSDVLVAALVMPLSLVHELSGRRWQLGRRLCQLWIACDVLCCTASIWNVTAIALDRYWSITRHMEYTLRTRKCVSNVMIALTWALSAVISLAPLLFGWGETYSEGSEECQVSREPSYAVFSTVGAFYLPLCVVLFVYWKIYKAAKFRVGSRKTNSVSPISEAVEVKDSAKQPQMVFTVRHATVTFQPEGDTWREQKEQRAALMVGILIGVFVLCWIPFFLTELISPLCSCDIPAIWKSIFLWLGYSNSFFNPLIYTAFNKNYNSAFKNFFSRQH
# assay comment: [3H]LSD radioligand binding assay
# reported conditions: [3H]LSD approx. 1 nM; membranes from HEK-EBNA cells transiently expressing 5-HT5A; Ki from IC50 by Cheng-Prussoff
pKi: −log10 of the molar value.
Values of pKi greater than or equal to 8 map to Fulfilled; values below map to Not fulfilled.

Exercise: Does the compound CC1(C)Cc2cccc(Nc3ccc4c(NS(=O)(=O)Nc5ccc(F)cc5)cccc4n3)c2O1 have recorded pKi that is 8 or more?
Solution: Not fulfilled

Exercise: Does pKi meet or surpass 8 for CC1Cc2cccc(Nc3ccc4c(NS(=O)(=O)c5cc(F)cc(F)c5)cccc4n3)c2O1 (racemic) ?
Solution: Not fulfilled

Exercise: Item O=S(=O)(Nc1cccc2nc(NCc3ccccc3OC(F)(F)F)ccc12)c1ccc(F)cc1 with pKi of 8 or above?
Solution: Not fulfilled

Exercise: Kindly determine if pKi recorded for c1cc(CNc2ccc3c(NCc4cccc5[nH]ccc45)cccc3n2)c2c(c1)OCCO2 is above or exactly 8.
Solution: Fulfilled

Exercise: Is it the case that Cc1ccc(CNc2ccc3c(NCc4cc[nH]n4)cccc3n2)o1 has pKi reaching or exceeding 8?
Solution: Not fulfilled

Exercise: Could you please find out whether CC(Nc1cccc2nc(Nc3cccc4c3OC(C)(C)C4)ccc12)c1cc(F)cc(F)c1 (single isomer, unassigned; (+)) [Example 158] has pKi that meets 8 or exceeds it?
Solution: Fulfilled

Exercise: Determine whether this compound has pKi no lower than 8: Cc1ccc(CNc2ccc3c(CCc4ccccn4)cccc3n2)o1
Solution: Not fulfilled

Exercise: Please indicate if the recorded pKi for Cc1ccc(CNc2ccc3c(NS(=O)(=O)c4cc(F)cc(F)c4)cccc3n2)o1 meets or exceeds 8.
Solution: Not fulfilled

Exercise: Determine whether measured pKi meets or exceeds 8 for COCc1cccc(CCc2cccc3nc(NCc4ccc(C)o4)ccc23)c1
Solution: Not fulfilled

Exercise: Reported pKi at or above 8? Cc1cc2cccc(Nc3ccc4c(NS(=O)(=O)c5ccc(F)cc5)cccc4n3)c2o1
Solution: Not fulfilled

Exercise: API: above_or_equal(metric=pKi, cutoff=8) for item Cc1ccc(CNc2ccc3c(NCc4ccccn4)cccc3n2)o1
Solution: Not fulfilled

Exercise: In plain terms: is recorded pKi at least 8 for COc1ccccc1CNc1ccc2c(OCCS(=O)(=O)c3ccccc3)cccc2n1 ?
Solution: Not fulfilled

Origin of values: patent US7825253B2
